Source of measurements: patent US10245264B2

MEASUREMENT_TARGET: sGC α1/β1 heterodimer stably expressed in CHO-K1 cells (CHO-K1/sGC) (Homo sapiens, UniProt Q02108+Q02153)
Construct: expressed in transfected cells
TEST: Cell-based sGC functional assay (CASA assay), cGMP generation by HTRF
TEST_SETTINGS: CHO-K1, maximum cGMP production of Compound A set to 100% activation; read-out: % Act. (percent activation relative to Compound A)
Description: Biological Assay 1: Cell-Based sGC Functional Assay (CASA Assay) Rationale sGC is a heme-containing enzyme that converts GTP to secondary messenger cGMP. […] A CHO-K1 cell line stably expressing the sGC α1/β1 heterodimer was generated using a standard transfection protocol. […] The level of intracellular cGMP was determined using an HTRF-based assay kit (CisBio, 62GM2PEC), which detects the displacement of a fluorescence labeled cGMP from its specific antibody. […]
REPORTED_METRIC: Emax (%)
Note: unit % is implicit; provide only the numeric part.

Some solved cases for reference:
{"COMPOUND": "CCC1(CNc2nc(-c3nc(N)c4c(n3)NC(=O)C4(C)c3ccc(F)cc3)cn3ccnc23)CC1 (stereo not drawn) [Example 54A]", "TEST_VALUE": 98}
{"COMPOUND": "CC1(c2ccc(F)cc2)C(=O)Nc2nc(-c3cn4ccnc4c(Oc4cccnc4)n3)nc(N)c21 (stereo not drawn) [Example 29A]", "TEST_VALUE": 158}

Form: compound = CC1(c2ccc(F)cc2)C(=O)Nc2nc(-c3cn4cc(C5CC5)nc4c(Oc4cccc(F)c4)n3)nc(N)c21 (stereo not drawn) [Example 38A] ; Emax = 92

Form: compound = CC1(c2ccc(F)cc2)C(=O)Nc2nc(-c3cn4ccnc4c(OCC4CCCC4)n3)nc(N)c21 (stereo not drawn) [Example 45A] ; Emax = 110

Form: compound = CC1(c2ccc(F)cc2)C(=O)Nc2nc(-c3cn4ccnc4c(NCC(F)(F)C(F)(F)F)n3)nc(N)c21 (stereo not drawn) [Example 34A] ; Emax = 117

Form: compound = CC1(c2ccc(F)cc2)C(=O)Nc2nc(-c3cn4ccnc4c(Oc4cc(F)cc(F)c4F)n3)nc(N)c21 (stereo not drawn) [Example 17A] ; Emax = 100

Form: compound = CC1(c2ccc(F)cc2)C(=O)Nc2nc(-c3cn4ccnc4c(Oc4ccc(F)cc4F)n3)nc(N)c21 (stereo not drawn) [Example 19A] ; Emax = 109

Form: compound = CC1(c2ccc(F)cc2)C(=O)Nc2nc(-c3cn4ccnc4c(OCCC4CC4(F)F)n3)nc(N)c21 (stereo not drawn) [Example 41A] ; Emax = 94

Form: compound = CC(Nc1nc(-c2nc(N)c3c(n2)NC(=O)C3(C)c2ccc(Cl)cc2)cn2ccnc12)c1ccccc1 (stereo not drawn) ; Emax = 81

Form: compound = CC1(c2ccc(Cl)cc2)C(=O)Nc2nc(-c3cn4ccnc4c(OCC4CCCCO4)n3)nc(N)c21 (single isomer, unassigned; fast eluting) [Example 68A] ; Emax = 86

Form: compound = CC1(c2ccc(Cl)cc2)C(=O)Nc2nc(-c3cn4ccnc4c(OCC(F)(F)C(F)(F)F)n3)nc(N)c21 (stereo not drawn) [Example 47A] ; Emax = 91

====

Catalogue of molecules with associated Emax
MEASUREMENT_TARGET: sGC α1/β1 heterodimer stably expressed in CHO-K1 cells (CHO-K1/sGC) (Homo sapiens, UniProt Q02108+Q02153)
Construct: expressed in transfected cells
Sequence (Q02108 1-690): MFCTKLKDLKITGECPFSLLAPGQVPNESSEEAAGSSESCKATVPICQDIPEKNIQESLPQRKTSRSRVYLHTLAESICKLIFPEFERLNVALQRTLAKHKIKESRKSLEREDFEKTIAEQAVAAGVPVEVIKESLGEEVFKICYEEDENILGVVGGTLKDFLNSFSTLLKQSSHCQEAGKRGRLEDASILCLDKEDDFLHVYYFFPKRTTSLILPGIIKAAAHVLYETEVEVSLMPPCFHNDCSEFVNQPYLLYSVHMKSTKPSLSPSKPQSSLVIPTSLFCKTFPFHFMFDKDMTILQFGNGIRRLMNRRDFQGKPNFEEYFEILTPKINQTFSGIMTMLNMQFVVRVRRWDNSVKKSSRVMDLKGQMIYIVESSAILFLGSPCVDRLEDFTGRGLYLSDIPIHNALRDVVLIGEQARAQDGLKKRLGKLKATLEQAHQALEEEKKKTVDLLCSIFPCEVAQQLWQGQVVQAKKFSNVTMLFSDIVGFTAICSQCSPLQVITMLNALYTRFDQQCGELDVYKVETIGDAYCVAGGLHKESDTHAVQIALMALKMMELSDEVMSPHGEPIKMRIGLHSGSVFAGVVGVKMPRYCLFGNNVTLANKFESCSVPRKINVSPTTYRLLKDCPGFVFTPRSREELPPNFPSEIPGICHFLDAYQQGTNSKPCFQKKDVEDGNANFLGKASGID
Sequence (Q02153 1-619): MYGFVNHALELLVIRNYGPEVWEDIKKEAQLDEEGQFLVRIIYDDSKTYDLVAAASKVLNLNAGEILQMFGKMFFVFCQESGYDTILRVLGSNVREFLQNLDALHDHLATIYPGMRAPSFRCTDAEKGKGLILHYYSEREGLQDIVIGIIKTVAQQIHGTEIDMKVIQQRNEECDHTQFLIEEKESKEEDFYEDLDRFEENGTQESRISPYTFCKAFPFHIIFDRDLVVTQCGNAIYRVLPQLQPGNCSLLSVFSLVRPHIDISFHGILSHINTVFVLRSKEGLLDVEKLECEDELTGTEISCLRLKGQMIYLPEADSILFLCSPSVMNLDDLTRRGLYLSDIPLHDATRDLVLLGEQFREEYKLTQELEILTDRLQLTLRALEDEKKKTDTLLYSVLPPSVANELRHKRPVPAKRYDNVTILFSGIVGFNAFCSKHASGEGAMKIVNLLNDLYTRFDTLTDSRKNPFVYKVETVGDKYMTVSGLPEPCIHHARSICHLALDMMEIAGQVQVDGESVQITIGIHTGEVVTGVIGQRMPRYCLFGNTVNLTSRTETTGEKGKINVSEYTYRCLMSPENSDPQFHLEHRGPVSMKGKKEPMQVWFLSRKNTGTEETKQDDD
TEST: Cell-based sGC functional assay (CASA assay), cGMP generation by HTRF
TEST_SETTINGS: CHO-K1, maximum cGMP production of Compound A set to 100% activation; read-out: % Act. (percent activation relative to Compound A)
Note: unit % is implicit; provide only the numeric part.

Some solved cases for reference:
{"MOLECULE": "CC1(c2ccc(Cl)cc2)C(=O)Nc2nc(-c3cn4ccnc4c(NCc4ccccc4)n3)nc(N)c21 (stereo not drawn) [Example 60A]", "VALUE_UNIT": "%", "TEST_VALUE": 72}
{"MOLECULE": "CC1(c2ccc(F)cc2)C(=O)Nc2nc(-c3cn4ccnc4c(Oc4ccc(F)c(F)c4F)n3)nc(N)c21 (stereo not drawn) [Example 16A]", "VALUE_UNIT": "%", "TEST_VALUE": 89}
{"MOLECULE": "CC1(c2ccc(Cl)cc2)C(=O)Nc2nc(-c3cn4ccnc4c(Oc4cc(F)ccc4F)n3)nc(N)c21 (stereo not drawn) [Example 27A]", "VALUE_UNIT": "%", "TEST_VALUE": 128}
{"MOLECULE": "CC1(c2ccc(F)cc2)C(=O)Nc2nc(-c3cn4ccnc4c(NCC4CCCCC4)n3)nc(N)c21 (stereo not drawn) [Example 55A]", "VALUE_UNIT": "%", "TEST_VALUE": 92}

Consider the record given below.
Form: molecule = CC(C)COc1nc(-c2nc(N)c3c(n2)NC(=O)C3(C)c2ccc(F)cc2)cn2ccnc12 (stereo not drawn) [Example 51A] ; Emax = 127
